So I've got a bunch of molecules here, and I need their normalized growth values.
# MEASUREMENT_PROTOCOL: chemical genetic growth profiling, strain panel (AID 1159580);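 further: tested at 20 µM; growth read once vehicle control cultures reached saturation at 30 °C; 1 = growth at the plate median or of vehicle wells; lower values mean less growth of the strain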
# MEASUREMENT_CONDITIONS: S. cerevisiae deletion strains, growth OD, locus YJR075W, strain HOC1, hits give low values
Screen size: about 5,500 compounds; about 2,000 (36%) were called active. Roughly 18% stayed inconclusive and do not appear here. This is one part of the list.
Please reply with the value in numeric form only.

**Q:** I am curious: what normalized growth value has been reported for N[C@@H](C(=O)O)c1ccccc1 ?
**A:** 0.992

**Q:** Proceed to CCOC(=O)[C@H](CCc1ccccc1)N[C@H]1CCc2ccccc2N(CC(=O)O)C1=O
**A:** 0.994

**Q:** Proceed to OC[C@H]1O[C@@H](n2cnc3c(Nc4ccccc4)ncnc32)C(O)[C@H]1O (stereo partly drawn)
**A:** 1.01

**Q:** Proceed to COc1cc2c(cc1OC)C1C(=O)c3c(OC)cc4c(c3OC1CO2)CCC(C)(C)O4 (stereo not drawn)
**A:** 1.01

**Q:** Proceed to CCOC(=O)C(=CNc1cccc(C#N)c1)C(=O)OCC
**A:** 0.981

**Q:** Proceed to CC(=O)OC(C)(C)[C@@H]1Cc2cc3ccc(=O)oc3cc2O1
**A:** 0.992

**Q:** Proceed to COc1cc2c(cc1OC)C1C(=O)c3c(O)cc4c(c3OC1CO2)C=CC(C)(C)O4 (stereo not drawn)
**A:** 0.999

**Q:** Proceed to COc1cc(/C=C2\NC(=O)NC2=O)ccc1O
**A:** 0.976

**Q:** Proceed to CC1(C)C(C=C(Cl)Cl)C1C(=O)OC(C#N)c1cccc(Oc2ccccc2)c1 (stereo not drawn)
**A:** 0.998

**Q:** Proceed to C[C@H]1CC2C([C@@H](O)C[C@@]3(C)C2CC[C@]3(O)C(=O)CO)[C@@]2(C)C=CC(=O)C=C12 (stereo partly drawn)
**A:** 1.01

**Q:** Proceed to CCOC(=O)C(=CNNC(=O)c1ccccc1-n1cccc1)C(=O)OCC
**A:** 1.01

**Q:** Proceed to COCCc1ccc(OCC(O)CNC(C)C)cc1 (stereo not drawn)
**A:** 1.01

**Q:** Proceed to COc1cc(NC(C)CCCN)c2ncccc2c1 (stereo not drawn)
**A:** 1
